System: MDA-MB-231 breast
Method Description: NCI-60 one-dose screen, 48 h (100 = growth as untreated, 0 = no growth, -100 = all killed)
Condition Context: 10 µM unless noted
This is part of a sample that, as a whole, favours compounds with a hit. Of some 83,000 tested, about 20% had one in any assay.
Quantity Name: growth (%)
Give the value in % but do not write % after it.

I have this molecule here, COc1ccc2c(c1)CC[C@@H]1[C@@H]2CC[C@]2(C)C3C(=CCC4C(=O)N(c5ccccc5)C(=O)C43)C[C@@H]12 (stereo not given in full) , and I need its recorded growth. 86.6

Suppose we examine the molecule CN1C(=O)N(C)C2(c3ccccc3)N(CC(=O)Nc3ccccc3O)C(=O)NC12c1ccccc1 (stereo not given) ; what growth value has been reported? 101

I'd like to know its growth. The molecule in question is `Clc1ccc2c(c1)N(c1ncnc3ccc(-c4cnc5[nH]ccc5c4)cc13)CC2` 35.6

For the molecule `COc1ccc2c(c1)c(C(=O)c1nc(-c3cn(C)c4ccccc34)no1)cn2C` , what growth is on record? 104

Please give the measured growth for this molecule: O=C1OCC2=C1C(c1cccc([N+](=O)[O-])c1)c1cc3c(cc1N2CCO)CCC3 (stereo not given) 30

====

Below, each of the molecules is paired with its reported growth value.
Test system: A498 renal
Method Description: NCI-60 one-dose screen, 48 h (100 = growth as untreated, 0 = no growth, -100 = all killed)
Condition Context: 100 µM
The panel holds about 83,000 compounds, 20% with a hit somewhere; the sample as a whole holds those more often.
Return type: number; implicit unit %.

Some molecules with known growth results, for comparison:
[[record]]
molecule_smiles = "COc1ccc(C(=O)/C=C/c2ccc(OCc3cccc(C(F)(F)F)c3)c(OC)c2)cc1OC"
assay_value = -12.8

[[record]]
molecule_smiles = "CC(=O)/C=C/c1ccc(OCc2ccc(Cl)cc2)cc1"
assay_value = 12.1


Given the molecule `CCN(Cc1ccccc1)c1ccc(/C=C2\COc3ccccc3C2=O)cc1` , what is its reported growth? 40.2

Bench note: what growth did `CC(=O)/C=C/c1ccc(N(CCO)Cc2ccc(C(C)(C)C)cc2)cc1` show? -98.3

Would you kindly share the measured growth for `CC(=O)/C=C/c1ccc(N(C)Cc2ccc(C(C)(C)C)cc2)cc1` ? -95.6

Can you look up the measured growth of `O=C(/C=C/c1cccc(Oc2ccc(Cl)cc2)c1)c1ccccc1` for me? -95.3

====

Tested on: LOX IMVI melanoma
Method Description: NCI-60 one-dose screen, 48 h
Condition Context: 10 µM unless noted
This is part of a sample that, as a whole, favours compounds with a hit. Of some 83,000 tested, about 20% had one in any assay. Active and inactive are the calls of the source. The calls were made as follows: active = growth percent below 10; inactive = the rest.
Please state which outcome applies, choosing from Yes = active, No = inactive

Take a look at these entries with their results.
[[record]]
molecule_smiles = "O=C(Nc1ccc2ncsc2c1)c1csc(Nc2ccc3[nH]ncc3c2)n1"
label_value = "No"

[[record]]
molecule_smiles = "COc1ccc2c(O)c(/C=C3\\N=Nc4nc(C)ccc43)oc2c1CC1CCNCC1"
label_value = "Yes"

[[record]]
molecule_smiles = "COC(=O)c1nc(-c2ccccc2)oc1S(=O)(=O)N(C)CCO"
label_value = "No"

[[record]]
molecule_smiles = "C=CCOc1ccc(/C=C2\\SC(=S)N(CCc3ccc(O)cc3)C2=O)cc1"
label_value = "Yes"

[[record]]
molecule_smiles = "COC(=O)c1c2c(c(C)[n+]([O-])c1C)C(=O)C(NCCN1CCOCC1)=CC2=O"
label_value = "No"


Tell me the recorded outcome of this test for `C=C[C@]1(C)C=C2CC[C@@H]3C(C)(C)C(=O)CC[C@@]3(C)[C@@H]2CC1` . No

# fetch the recorded call for `COc1ccc(Oc2nc(Nc3ccc(N4CCOCC4)cc3)ncc2NC(=O)c2cccc(C(F)(F)F)c2)cc1` here No

How did this test come out for `Cc1ccc(C(=O)c2ccc(CC(=O)N=Nc3c(O)[nH]c4ccc(OC(F)(F)F)cc34)n2C)cc1` ? No

Short answer needed: outcome of this test for `N#C/C(=C\c1ccccc1Cl)c1cc2ccccc2[nH]1` ? No

What outcome does the record of this test show for `O=C(Nc1ccc(F)cc1)c1cc2cc(Nc3nc(-c4ccccc4)nc4ccccc34)ccc2oc1=O` ? No
